Entry source: the supplement of paper PMC9112550

Each entry below lists one item and its recorded shrunken log2 fold change value.
# System: Escherichia coli TOP10
# Protocol Notes: shrunken log2 fold change of peptide-encoding DNA abundance (4.5 h post-induction vs induction); higher = less antimicrobial activity (less host growth inhibition)
# Condition Summary: time post-induction: 4.5 h; library: site-saturation at positions 5, 18, 19, 20
// keep it numeric: no unit symbol after the value

RRIRYRPPRLPRPRPRPEYAPRP = -0.0128
RRIRYRPPRLPRPRPRPIIKPRP = -1.25
RRIRLRPPRLPRPRPRPFVAPRP = -0.0302
RRIRERPPRLPRPRPRPIYNPRP = -0.85

query: # get_value(readout='shrunken log2 fold change', item= RRIRPRPPRLPRPRPRPGMIPRP )
result: 0.0107

query: Repeat with RRIRIRPPRLPRPRPRPFNQPRP
result: -0.977

query: Repeat with RRIRSRPPRLPRPRPRPDSIPRP
result: 0.0681

query: Repeat with RRIRYRPPRLPRPRPRPLADPRP
result: -0.213

query: Repeat with RRIRPRPPRLPRPRPRPVSMPRP
result: 1.41

query: Repeat with RRIRHRPPRLPRPRPRPKIEPRP
result: 0.0371

query: Repeat with RRIRVRPPRLPRPRPRPHHTPRP
result: -0.731

====

Each entry below lists one item and its recorded shrunken log2 fold change value.
# System: Escherichia coli TOP10
# Protocol Notes: shrunken log2 fold change of peptide-encoding DNA abundance (4.5 h post-induction vs induction); higher = less antimicrobial activity (less host growth inhibition)
# Condition Summary: time post-induction: 4.5 h; library: site-saturation at positions 5, 18, 19, 20
// keep it numeric: no unit symbol after the value

RRIRHRPPRLPRPRPRPLAHPRP = 0.0514
RRIRMRPPRLPRPRPRPHYTPRP = -0.399
RRIRHRPPRLPRPRPRPSGKPRP = -0.0266
RRIRIRPPRLPRPRPRPEYFPRP = -0.0312
RRIRPRPPRLPRPRPRPQKAPRP = 1.05
RRIRVRPPRLPRPRPRPERLPRP = -0.0657
RRIRARPPRLPRPRPRPCGPPRP = 0.0702
RRIRQRPPRLPRPRPRPKCDPRP = 0.151
RRIRIRPPRLPRPRPRPPAPPRP = 0.298
RRIRHRPPRLPRPRPRPNLYPRP = -0.012

query: # get_value(readout='shrunken log2 fold change', item= RRIRKRPPRLPRPRPRPLQHPRP )
result: 0.657

query: Repeat with RRIRPRPPRLPRPRPRPQMNPRP
result: -0.267

query: Repeat with RRIRIRPPRLPRPRPRPTSAPRP
result: 0.065

query: Repeat with RRIRDRPPRLPRPRPRPLPIPRP
result: 0.162

query: Repeat with RRIRLRPPRLPRPRPRPKGCPRP
result: -0.0474

====

Each entry below lists one item and its recorded shrunken log2 fold change value.
# Tested on: Escherichia coli TOP10;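 further: peptides expressed intracellularly from a pBAD plasmid library in pooled LB shake-flask culture, induced with 0.3% L-arabinose, DNA abundance read by NGS, three biological replicates, DESeq2 with apeglm shrinkage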
# Protocol Notes: shrunken log2 fold change of peptide-encoding DNA abundance (4.5 h post-induction vs induction); higher = less antimicrobial activity (less host growth inhibition)
# Condition Summary: time post-induction: 4.5 h; library: site-saturation at positions 5, 18, 19, 20
// keep it numeric: no unit symbol after the value

RRIRCRPPRLPRPRPRPFVYPRP = -0.526
RRIRKRPPRLPRPRPRPTYIPRP = -0.154
RRIRDRPPRLPRPRPRPALKPRP = 0.407
RRIRNRPPRLPRPRPRPICYPRP = -0.818
RRIRKRPPRLPRPRPRPDGVPRP = 0.154
RRIRNRPPRLPRPRPRPQDRPRP = 0.0155

query: # get_value(readout='shrunken log2 fold change', item= RRIRCRPPRLPRPRPRPQYPPRP )
result: -0.329

query: Repeat with RRIRDRPPRLPRPRPRPRGKPRP
result: -0.0455

query: Repeat with RRIRHRPPRLPRPRPRPYNVPRP
result: -0.0512

query: Repeat with RRIRDRPPRLPRPRPRPEVKPRP
result: -0.0257

query: Repeat with RRIRGRPPRLPRPRPRPEHIPRP
result: 0.19

query: Repeat with RRIRDRPPRLPRPRPRPSSVPRP
result: -0.0994
